Experimental target: T1, Rb^P Q444R (human, UniProt P06400 380-788, Q444R)
T1 construct: also called variant 4
T1 sequence (looked up): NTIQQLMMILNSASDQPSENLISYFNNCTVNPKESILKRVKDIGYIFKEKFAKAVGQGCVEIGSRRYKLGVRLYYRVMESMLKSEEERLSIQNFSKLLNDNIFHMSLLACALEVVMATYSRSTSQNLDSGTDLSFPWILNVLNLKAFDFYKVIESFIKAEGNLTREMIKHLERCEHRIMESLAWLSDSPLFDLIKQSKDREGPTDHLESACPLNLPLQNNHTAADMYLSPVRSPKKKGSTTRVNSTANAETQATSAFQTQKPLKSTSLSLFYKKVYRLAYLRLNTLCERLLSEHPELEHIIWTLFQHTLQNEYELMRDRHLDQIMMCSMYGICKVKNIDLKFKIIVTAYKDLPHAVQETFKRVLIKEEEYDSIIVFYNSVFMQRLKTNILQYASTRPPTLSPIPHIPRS
Test protocol: fluorescence polarisation; 37 °C, after the 25 °C reading ramped over 7 min to 37 °C and 2 min incubation; unlabeled Rb^P against 1.5 nM TMR-E2F1^TD or 7.5 nM TMR-E7^LxCxE; 25 mM Tris pH 8.0, 200 mM NaCl, 1 mM DTT, 0.1% Tween-20; apparent Kd
Study conditions: both partners purified
No end group written: not given here. TMR = tetramethyl rhodamine dye
Consider the following binders; for each one, report its Kd.
Give bare numbers, in nM.

DLYCYEQLN (also: TMR label, position not given here, source: synthetic peptide, bought: GenScript) [TMR-E7^LxCxE, LxCxE peptide of the E7 oncoprotein from HPV]: 17

Here's the next entry for you.
GET /values?readout=Kd&item= {TMR}-GEGIRDLFDCDFGDLTPLD (also called E2F^TD; source: synthetic peptide, bought: GenScript) [TMR-E2F1^TD, peptide of the E2F1 transactivation domain]
25
